Data export: pKi values recorded with 5-hydroxytryptamine receptor 1B (Homo sapiens, UniProt P28222).
Sequence (P28222 whole entry): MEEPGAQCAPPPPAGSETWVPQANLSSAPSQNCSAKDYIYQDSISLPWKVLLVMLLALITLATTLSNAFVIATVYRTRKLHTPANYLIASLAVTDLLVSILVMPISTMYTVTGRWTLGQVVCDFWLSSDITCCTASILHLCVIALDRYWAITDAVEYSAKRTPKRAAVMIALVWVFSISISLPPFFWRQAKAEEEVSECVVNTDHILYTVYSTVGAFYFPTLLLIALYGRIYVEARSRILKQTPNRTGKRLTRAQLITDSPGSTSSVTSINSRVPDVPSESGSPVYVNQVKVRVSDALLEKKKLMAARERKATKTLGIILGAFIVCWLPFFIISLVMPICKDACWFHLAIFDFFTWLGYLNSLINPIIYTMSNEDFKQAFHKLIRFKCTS
Scale explanation: pKi corresponds to minus log10 of a concentration expressed in moles per litre.

Q: Endpoint output: pKi of CN1CCC(c2c[nH]c3ccc(NC(=O)CCCCCCCCCCCCC(=O)Nc4ccc5[nH]cc(C6CCN(C)CC6)c5c4)cc23)CC1 . Value?
Ans: 9.30

Q: How about O=C(Nc1ccc2[nH]cc(C3CCN(CCCCCCCCCCCN4CCC(c5c[nH]c6ccc(NC(=O)c7ccc(F)cc7)cc56)CC4)CC3)c2c1)c1ccc(F)cc1 ?
Ans: 6.90

Q: Then CN1CCC(c2c[nH]c3ccc(NC(=O)CCCCCCCCCCCC(=O)Nc4ccc5[nH]cc(C6CCN(C)CC6)c5c4)cc23)CC1 ?
Ans: 10.00

Q: // same read-out, input: CN1CCC(c2c[nH]c3ccc(N)cc23)CC1
Ans: 6.45

All figures here come from ChEMBL document CHEMBL1150432.
